assay: in vivo; settings: C57BL/6, mouse, brain and plasma, iv
measureName: Kp at 0.5 h
The reply should be a number, written without any unit.

Give reported Kp at 0.5 h value for "CC(=O)O[C@H]1C(=O)[C@@]2(C)[C@H]([C@H](OC(=O)c3ccccc3)[C@]3(O)C[C@H](OC(=O)[C@H](O)[C@@H](NC(=O)c4ccccc4)c4ccccc4)C(C)=C1C3(C)C)[C@]1(OC(C)=O)CO[C@@H]1C[C@@H]2O"
0.46

* * *

test: Plasma PK of cyclodextrin-HM after i.v. injection; assay type: in vivo, C57BL/6 mice; conditions: C57BL/6, mouse, iv, 20 mg/kg, read-out: area under the curve (AUC0-t)
measureName: AUC(0-t)

Provide only the value of recorded AUC(0-t) for COc1cc2c(cc1OC)CN(CCc1ccc(-n3nnc(-c4cc(OC)c(OC)cc4NC(=O)c4cc(=O)c5ccccc5o4)n3)cc1)CC2 [HM, HM30181A]
4750 to 9760 ng·h/mL
